target.under.test: Recombinant HDAC9 isoform 4 (Homo sapiens)
Construct: purchased BPS Bioscience
Sequence (Q9UKV0 1-1066 isoform Q9UKV0-5): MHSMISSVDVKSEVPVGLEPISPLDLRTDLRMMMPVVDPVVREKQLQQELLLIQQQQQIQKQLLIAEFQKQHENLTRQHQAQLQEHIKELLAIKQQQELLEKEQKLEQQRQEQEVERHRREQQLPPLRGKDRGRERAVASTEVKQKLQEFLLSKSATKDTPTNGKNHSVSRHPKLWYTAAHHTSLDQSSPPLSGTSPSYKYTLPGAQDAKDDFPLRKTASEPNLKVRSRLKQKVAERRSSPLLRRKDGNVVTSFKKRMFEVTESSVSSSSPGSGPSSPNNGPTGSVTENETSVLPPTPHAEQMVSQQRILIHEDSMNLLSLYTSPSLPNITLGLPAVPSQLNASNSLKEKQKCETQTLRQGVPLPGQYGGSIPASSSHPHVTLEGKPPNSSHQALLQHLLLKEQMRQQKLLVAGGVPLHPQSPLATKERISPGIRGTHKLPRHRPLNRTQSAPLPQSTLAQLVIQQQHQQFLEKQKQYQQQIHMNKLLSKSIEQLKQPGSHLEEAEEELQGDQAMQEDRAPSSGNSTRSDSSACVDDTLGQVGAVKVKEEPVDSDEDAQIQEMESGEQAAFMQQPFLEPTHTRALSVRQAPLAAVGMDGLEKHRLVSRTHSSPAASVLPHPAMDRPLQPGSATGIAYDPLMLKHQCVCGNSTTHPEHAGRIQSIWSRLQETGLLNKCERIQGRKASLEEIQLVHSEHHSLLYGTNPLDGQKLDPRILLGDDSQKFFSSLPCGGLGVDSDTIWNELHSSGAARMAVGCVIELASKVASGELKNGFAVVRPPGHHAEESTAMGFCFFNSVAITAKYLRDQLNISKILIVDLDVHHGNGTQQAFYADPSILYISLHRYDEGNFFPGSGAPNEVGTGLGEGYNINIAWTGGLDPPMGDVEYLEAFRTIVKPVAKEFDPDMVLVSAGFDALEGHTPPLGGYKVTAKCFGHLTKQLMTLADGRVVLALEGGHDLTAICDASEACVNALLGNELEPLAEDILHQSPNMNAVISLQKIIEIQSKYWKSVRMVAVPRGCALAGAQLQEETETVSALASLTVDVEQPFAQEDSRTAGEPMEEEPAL
method: Histone Deacetylase 9 (HDAC9) inhibition assay, fluorogenic substrate
Assay type: biochemical
applied.conditions: mean of a minimum of 2 experiments; 11 point 3x dilution series from 100 uM; substrate 4.5 uM; read-out: mean pIC50, inhibition of HDAC9 (converted)
observation.type: IC50

O=S(=O)(NCC1(c2nc(-c3ccccc3)cs2)CCOCC1)c1cccc(-c2noc(C(F)(F)F)n2)c1 [Example 32] : < 1000 nM
O=C(NCC1(c2cccc(-c3ccccc3)c2)CCOCC1)c1cncc(-c2noc(C(F)(F)F)n2)c1 [Example 78] : < 1000 nM
O=C(NCC1(c2nc(-c3ccncc3)cs2)CCOCC1)c1cccc(-c2noc(C(F)(F)F)n2)c1 [Example 21] : < 1000 nM
O=C(NCCC(O)c1coc(-c2ccc(F)cc2)n1)c1cccc(-c2noc(C(F)(F)F)n2)c1 (centres unmarked) [Example 110] : < 1000 nM

Note: attention shifts to another entry.
Just so you know, measured IC50 for O=C(NCCc1nc(-c2ccccc2)no1)c1cccc(-c2noc(C(F)(F)F)n2)c1 [Example 132] came out at < 1000 nM
